Target: TLS (UniProt P35637 1-526)
Sequence (P35637 whole entry): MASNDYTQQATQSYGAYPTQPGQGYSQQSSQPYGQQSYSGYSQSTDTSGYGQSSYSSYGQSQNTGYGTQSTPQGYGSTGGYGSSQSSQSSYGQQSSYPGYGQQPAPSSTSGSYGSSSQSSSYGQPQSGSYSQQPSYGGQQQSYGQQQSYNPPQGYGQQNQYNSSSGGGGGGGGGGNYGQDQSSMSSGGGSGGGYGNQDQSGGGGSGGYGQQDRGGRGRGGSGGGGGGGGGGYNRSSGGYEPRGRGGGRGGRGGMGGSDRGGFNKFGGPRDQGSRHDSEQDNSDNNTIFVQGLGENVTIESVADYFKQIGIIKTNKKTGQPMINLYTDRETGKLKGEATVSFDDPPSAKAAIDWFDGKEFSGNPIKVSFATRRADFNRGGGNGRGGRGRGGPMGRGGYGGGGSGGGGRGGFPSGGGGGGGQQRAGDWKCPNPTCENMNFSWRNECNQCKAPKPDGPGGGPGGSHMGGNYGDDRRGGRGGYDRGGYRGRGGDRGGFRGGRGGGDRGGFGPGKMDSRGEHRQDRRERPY
Assay: EMSA

{"Binder": "GACACCCCATATCCAAGCCGGCAGA (ssDNA) [DNA (complement of -454s)]", "binding result": "no binding"}
{"Binder": "UCCAGCAGCAGCCCAAGAUGGUGGC (ssRNA) [-764a]", "binding result": "no binding"}
{"Binder": "CCCGGGAUUUAGGGGGUGAGGUGGA (ssRNA) [-341a]", "binding result": "binds"}
{"Binder": "UGGCAUCGUGAUGGACUCCGGUGAC (ssRNA) [β-actin RNA]", "binding result": "no binding"}
